- SUBJECT_OF_TEST: Heat shock protein HSP 90-alpha (Homo sapiens, UniProt P07900)
- Format: functional, organism-based
The source made the active and inactive calls.
Please respond with reported AC50 for every item in the list.

Here are 2 compounds together with their reported answers.
{"COMPOUND": "O=C(N/N=C/c1c(O)ccc2ccccc12)c1cccc(C(F)(F)F)c1", "SUBJECT_OF_TEST": "Heat shock protein HSP 90-alpha (Homo sapiens, UniProt P07900)", "RESULT": "2.24 µM (active)"}
{"COMPOUND": "O=C(OCC(=O)C12CC3CC(CC(C3)C1)C2)c1ccc(O)cc1", "SUBJECT_OF_TEST": "Heat shock protein HSP 90-alpha (Homo sapiens, UniProt P07900)", "RESULT": "1.04 µM (active)"}

Please supply AC50 for each of the following items, keeping them in order.
1. COc1ccc([N+](=O)[O-])c(S(=O)(=O)c2ccc(Cl)cc2)n1
2. CCCCCCC(Cl)(Cn1ccnc1)c1ccccc1 (stereo not drawn)
3. CC(=O)SC(C[N+](=O)[O-])c1cn(C(C)=O)c2ccccc12 (stereo not drawn)
4. COc1ccc(OC)c(N2C(=O)NC(=O)/C(=C/c3ccc([N+](=O)[O-])s3)C2=O)c1

["0.753 µM (active)", "8.5 µM (active)", "1.48 µM (active)", "3.06 µM (active)"]

Please supply AC50 for each of the following items, keeping them in order.
1. O=C1Nc2ccc(Br)cc2C12NNc1ccccc1O2 (stereo not drawn)
2. O=[N+]([O-])/C=C\c1ccc(N2CCCC2)c(F)c1

3.34 µM (active)
8.22 µM (active)

---

- SUBJECT_OF_TEST: Corticotropin-releasing factor receptor 2/Corticotropin-releasing factor-binding protein (Homo sapiens, UniProt P24387+Q13324)
- Sequence (Q13324 whole entry): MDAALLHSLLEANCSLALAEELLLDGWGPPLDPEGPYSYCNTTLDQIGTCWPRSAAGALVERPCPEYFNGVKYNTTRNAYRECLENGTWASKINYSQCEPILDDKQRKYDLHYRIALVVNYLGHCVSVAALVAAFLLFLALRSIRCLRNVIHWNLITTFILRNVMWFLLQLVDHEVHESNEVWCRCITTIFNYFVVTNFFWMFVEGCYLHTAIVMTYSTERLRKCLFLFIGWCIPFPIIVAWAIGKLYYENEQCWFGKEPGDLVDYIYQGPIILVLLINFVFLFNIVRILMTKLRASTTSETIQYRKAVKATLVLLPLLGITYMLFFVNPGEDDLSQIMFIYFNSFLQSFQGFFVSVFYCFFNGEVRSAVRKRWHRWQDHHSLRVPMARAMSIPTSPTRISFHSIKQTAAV
- Sequence (P24387 whole entry): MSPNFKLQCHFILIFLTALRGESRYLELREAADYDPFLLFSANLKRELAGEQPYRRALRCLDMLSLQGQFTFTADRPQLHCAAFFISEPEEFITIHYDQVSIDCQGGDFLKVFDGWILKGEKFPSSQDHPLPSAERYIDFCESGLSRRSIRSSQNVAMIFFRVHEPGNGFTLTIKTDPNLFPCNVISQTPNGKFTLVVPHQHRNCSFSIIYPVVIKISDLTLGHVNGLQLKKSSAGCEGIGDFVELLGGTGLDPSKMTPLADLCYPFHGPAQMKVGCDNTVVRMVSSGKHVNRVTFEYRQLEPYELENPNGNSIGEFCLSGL
- METHOD: activators of CRF receptor 2 with binding protein – uHTS hits, confirmation (AID 602473)
- Type: functional
- MEASUREMENT_CONDITIONS: read-out: EC50_Mean
Activity calls are given as the source filed them.
// one of active, inactive, no free text

Recorded results for 5 compounds are shown here.
{"COMPOUND": "CC(C)CSc1nnc2[nH]c(=O)cc(N)n12", "CLASS_NAME": "inactive"}
{"COMPOUND": "COc1cc2c(cc1OC)C(/C=C(\\O)c1ccc(OC)c([N+](=O)[O-])c1)=NCC2", "CLASS_NAME": "inactive"}
{"COMPOUND": "CC(=O)N1CCOc2cc(S(=O)(=O)N3CCN(c4ccccc4)CC3)c(Cl)cc21", "CLASS_NAME": "inactive"}
{"COMPOUND": "CCOC(=O)Cn1c(=O)oc2cc(S(=O)(=O)NC(C)(C)CC)ccc21", "CLASS_NAME": "inactive"}
{"COMPOUND": "COc1ccc(C2=CC(c3ccco3)n3ncnc3N2)cc1 (configuration not stated)", "CLASS_NAME": "active"}

So what was the verdict on `CCCCc1ccc(NC(=S)Nc2cccnc2)cc1` in this test?
inactive

So what was the verdict on `CN1Cc2c(N3CCOCC3)nc(SCc3ccccc3)c(C#N)c2CC1(C)C` in this test?
inactive

---

- METHOD: HepG2 cell cytotoxicity, dose response, cytotoxicity control for Shn3 inhibitor project, CellTiter-Glo, cherry-picked (AID 624134)
- Format: functional, cell-based
Activity calls are given as the source filed them.
// one of Yes for active, No for inactive, no free text

Recorded results for 2 compounds are shown here.
{"COMPOUND": "CC(C)n1c(/C=C/[C@@H](O)C[C@@H](O)CC(=O)O)c(-c2ccc(F)cc2)c2ccccc21 [FLUVASTATIN SODIUM]", "CLASS_NAME": "No"}
{"COMPOUND": "O=[N+]([O-])c1cc(CN2CCN(c3ccccc3)CC2)c(O)c2ncccc12", "CLASS_NAME": "Yes"}

So what was the verdict on `Oc1ccccc1Nc1nc(NCc2ccccc2)c2ccccc2n1` in this test?
Yes

So what was the verdict on `O=C(Nc1nc(-c2ccccc2)cs1)c1ccc(N2CCOCC2)c([N+](=O)[O-])c1` in this test?
Yes

So what was the verdict on `CN(Cc1ccc(OC(F)F)cc1)C(=O)c1cccc(S(=O)(=O)N2CCN(c3ccccc3)CC2)c1` in this test?
Yes

FYI, the data here is from ChEMBL document CHEMBL1201862.
